# Species: Bos taurus
# experiment.notes: Agonist activity at GPER in BCAEC assessed as increase in nitric oxide production at 1 uM pre-incubated with 1 uM GPER antagonist G15 for 30 mins followed by compound incubation for 10 mins by nitrate/nitrite fluorometric assay relative to untreated control
# Parameters: scale not given: the % may be the effect or the level left
endpoint.name: Activity (%)
Numbers only, in %.

Some molecules with known Activity results, for comparison:
INSERT INTO measurements (compound_structure, quantitative_readout) VALUES
  ('C#CCO[C@@H]1Cc2c(O)cc(O)cc2O[C@@H]1c1ccc(O)c(O)c1', 70.9),
  ('C#CCOc1cc(OCC#C)c2c(c1)O[C@H](c1ccc(OCC#C)c(OCC#C)c1)[C@H](OCC#C)C2', 60);

Look up Activity for the entries below, preserving their order.
1. CS(=O)(=O)O[C@@H]1Cc2c(O)cc(O)cc2O[C@@H]1c1ccc(O)c(O)c1
2. C#CCOc1cc(OCC#C)c2c(c1)O[C@H](c1ccc(OCC#C)c(OCC#C)c1)[C@H](O)C2
3. Oc1cc(O)c2c(c1)O[C@H](c1ccc(O)c(O)c1)[C@H](O)C2

output:
1. 41.8
2. 63.6
3. 60
